assay: Tigecycline plasma PK and % F after PO enteric-coated capsule in dogs; assay type: in vivo, Beagle dogs; details: female, beagle, dog, plasma, po, 45 mg, Tigecycline Plasma Concentration, Time (min) 0.7; PO 45 mg enteric-coated capsule with 500 mg CA and 100 mg LLC, SC430; individual dogs
measurement.kind: concentration at 0.7 min (ng/mL)
Reply with just the number (in ng/mL).

Supply measured concentration at 0.7 min of CN(C)c1cc(NC(=O)CNC(C)(C)C)c(O)c2c1C[C@H]1C[C@H]3[C@H](N(C)C)C(O)=C(C(N)=O)C(=O)[C@@]3(O)C(O)=C1C2=O in your reply.
0

====

experiment: Tigecycline plasma PK and % F after PO enteric-coated capsule in dogs; type: in vivo, Beagle dogs; conditions: female, beagle, dog, plasma, po, 30 mg, Tigecycline Plasma Concentration, Time (min) 0.0; PO 30 mg enteric-coated capsule with 500 mg CA and 100 mg LLC, SC430; individual dogs
measurement.kind: concentration at 0 min (ng/mL)
Reply with just the number (in ng/mL).

Supply measured concentration at 0 min of CN(C)c1cc(NC(=O)CNC(C)(C)C)c(O)c2c1C[C@H]1C[C@H]3[C@H](N(C)C)C(O)=C(C(N)=O)C(=O)[C@@]3(O)C(O)=C1C2=O [Tigecycline] in your reply.
0
